- Assay text: chemical genetic growth profiling, strain panel (AID 1159580);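 note: tested at 20 µM; growth read once vehicle control cultures reached saturation at 30 °C; 1 = growth at the plate median or of vehicle wells; lower values mean less growth of the strain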
- Protocol conditions: S. cerevisiae deletion strains, growth OD, locus YAL013W, strain DEP1, active compounds read low
The whole screen tested about 5,500 compounds, of which about 2,000 (36%) were called active. Inconclusive results (about 18%) are left out. This is one part of the list.
Property measured: normalized growth
Form rule: numeric answer, no unit written next to it.

The examples below pair each entry with its known result.
[
  {
    "Compound": "Nc1c2c(nc3ccccc13)CCCC2",
    "Property measured": "normalized growth",
    "Val": 1.02
  },
  {
    "Compound": "NNC(=O)c1ccncc1",
    "Property measured": "normalized growth",
    "Val": 1.01
  }
]

Q: Look up and state reported normalized growth for CNC(=O)Oc1ccc2c(c1)C1(C)CCN(C)C1N2C (stereo unspecified)
Result: 0.999

Q: Look up and state reported normalized growth for COc1ccc(C(=O)CN2CCN(c3cc(C)nc4ccccc34)CC2)cc1
Result: 1.01

Q: Look up and state reported normalized growth for NNc1nncc2ccccc12
Result: 1.01
